# METHOD_NOTES: Cell Proliferation Assay against the HBL1 Cell Line (AID 651646);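 note: cells exposed to compound for 48 h before reading; 100% = DMSO and 0% = 9.2 µM bortezomib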
# ASSAY_CONTEXT: HBL1 DLBCL cells; at 46.1 µM (top of the series)
Label key: 1 (yes) means viability, percent of control under 10%; 0 (no) means viability, percent of control of 10% or more.

- ITEM_SMILES: "CC(C)(C)c1cnc(CSc2cnc(NC(=O)C3CCNCC3)s2)o1"
  LABEL_CLASS: "0 (no)"

Prompt: Consider the compound Nc1ccc(C(=O)c2cc3c(ccc4ccccc43)[nH]2)cc1 . Is its viability, percent of control strictly less than 10%?
Completion: 0 (no)

Prompt: Given CCN(CC)CCCCNc1ncc2cc(-c3cc(OC)cc(OC)c3)c(NC(=O)NC(C)(C)C)nc2n1 , is recorded viability, percent of control strictly lower than 10%?
Completion: 1 (yes)

Prompt: I'd appreciate it if you could check whether CC(C)c1ccccc1Cc1cc(C(=O)Nc2ccc(S(=O)(=O)c3ccccc3C(C)(C)C)cc2)c(O)c(O)c1O has viability, percent of control smaller than 10%.
Completion: 0 (no)

Prompt: In plain terms, does Cn1c(=O)n(-c2ccc(C(C)(C)C#N)cc2)c2c3cc(-c4cnc5ccccc5c4)ccc3ncc21 come in under 10% for viability, percent of control?
Completion: 0 (no)

Prompt: Answer whether the compound Cc1cc(Nc2cc(NC(=O)c3c(Cl)cccc3Cl)ccn2)nc(N)n1 has viability, percent of control strictly less than 10%
Completion: 0 (no)

Prompt: Is it true that viability, percent of control reported for COc1cc2c(Oc3ccc(NC(=O)C4(C(=O)Nc5ccc(F)cc5)CC4)cc3F)ccnc2cc1OCCCN1CCOCC1 is less than 10%?
Completion: 1 (yes)

Prompt: Below 10% on viability, percent of control? Entry Cc1cnc(Nc2ccc(F)cc2Cl)nc1-c1c[nH]c(C(=O)N[C@H](CO)c2cccc(Cl)c2)c1
Completion: 1 (yes)

Prompt: Lab note: viability, percent of control threshold 10%. Does this compound come in strictly under it? Nc1cc(C(F)(F)F)c(-c2cc(N3CCOCC3)nc(N3CCOCC3)n2)cn1
Completion: 0 (no)
